# studySystem: Son of sevenless homolog 1 (Homo sapiens, UniProt Q07889)
# Sequence (Q07889 whole entry): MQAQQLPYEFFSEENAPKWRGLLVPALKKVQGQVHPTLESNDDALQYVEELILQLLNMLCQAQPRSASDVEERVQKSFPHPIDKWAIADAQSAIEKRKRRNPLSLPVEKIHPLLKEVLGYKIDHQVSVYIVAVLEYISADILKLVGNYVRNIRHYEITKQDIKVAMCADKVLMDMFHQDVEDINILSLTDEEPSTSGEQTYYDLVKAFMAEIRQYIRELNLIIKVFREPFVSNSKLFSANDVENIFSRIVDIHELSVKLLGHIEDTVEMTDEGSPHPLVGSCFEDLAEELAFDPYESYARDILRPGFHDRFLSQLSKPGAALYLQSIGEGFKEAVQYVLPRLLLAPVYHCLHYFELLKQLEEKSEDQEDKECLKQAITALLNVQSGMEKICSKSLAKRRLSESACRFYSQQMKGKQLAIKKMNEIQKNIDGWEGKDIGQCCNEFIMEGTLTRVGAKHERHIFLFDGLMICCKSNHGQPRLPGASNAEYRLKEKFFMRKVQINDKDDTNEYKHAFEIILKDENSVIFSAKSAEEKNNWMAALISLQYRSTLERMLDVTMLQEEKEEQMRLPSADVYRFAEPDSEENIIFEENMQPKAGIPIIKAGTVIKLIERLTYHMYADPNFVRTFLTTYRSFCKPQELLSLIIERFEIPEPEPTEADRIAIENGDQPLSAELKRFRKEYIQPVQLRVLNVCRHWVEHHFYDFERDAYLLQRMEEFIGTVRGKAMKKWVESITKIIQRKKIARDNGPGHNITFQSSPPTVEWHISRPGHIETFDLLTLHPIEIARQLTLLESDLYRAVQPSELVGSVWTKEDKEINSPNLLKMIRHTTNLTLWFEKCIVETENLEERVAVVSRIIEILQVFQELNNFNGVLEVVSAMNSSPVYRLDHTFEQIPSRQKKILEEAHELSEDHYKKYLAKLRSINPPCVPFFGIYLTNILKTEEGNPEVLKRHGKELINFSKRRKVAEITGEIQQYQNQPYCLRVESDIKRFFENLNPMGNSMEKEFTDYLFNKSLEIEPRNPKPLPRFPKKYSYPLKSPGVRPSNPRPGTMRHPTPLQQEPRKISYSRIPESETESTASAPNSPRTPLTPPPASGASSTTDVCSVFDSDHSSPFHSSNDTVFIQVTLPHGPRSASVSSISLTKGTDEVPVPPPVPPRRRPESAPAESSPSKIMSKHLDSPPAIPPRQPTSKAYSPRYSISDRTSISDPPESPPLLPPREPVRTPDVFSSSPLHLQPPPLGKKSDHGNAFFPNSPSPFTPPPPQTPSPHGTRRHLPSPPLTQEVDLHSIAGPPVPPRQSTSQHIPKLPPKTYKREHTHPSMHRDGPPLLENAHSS
# testDetails: Binding affinity to human recombinant N-terminal His6-tagged SOS1 (564 to 1049 residues) expressed in BL21-RIL Escherichia coli assessed as SOS1-RAS complex formation by measuring exchange of GTP to BODIPY-GDP measured every 3 secs for 30 mins
Listed here: items and their measured EC50.

smilesText	EC50 [µM]
Cc1ccc2[nH]cc(C[C@H](N)C(=O)NC3CCN(Cc4c[nH]c5ccc(Cl)cc45)CC3)c2c1	5.9
N[C@@H](Cc1c[nH]c2cc(C(F)(F)F)ccc12)C(=O)NC1CCN(Cc2c[nH]c3ccc(Cl)cc23)CC1	6.1
